# Tested on: Escherichia coli TOP10;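 note: peptides expressed intracellularly from a pBAD plasmid library in pooled LB shake-flask culture, induced with 0.3% L-arabinose, DNA abundance read by NGS, three biological replicates, DESeq2 with apeglm shrinkage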
# TEST_DETAILS: shrunken log2 fold change of peptide-encoding DNA abundance (4.5 h post-induction vs induction); higher = less antimicrobial activity (less host growth inhibition)
# CONDITIONS: time post-induction: 4.5 h; library: site-saturation at positions 5, 18, 19, 20
PARAMETER: shrunken log2 fold change

SEQUENCE_RECORD: RRIRGRPPRLPRPRPRPNALPRP
PARAMETER: shrunken log2 fold change
MEAS_VALUE: 0.474

SEQUENCE_RECORD: RRIRGRPPRLPRPRPRPVPRPRP
PARAMETER: shrunken log2 fold change
MEAS_VALUE: 0.806

SEQUENCE_RECORD: RRIRKRPPRLPRPRPRPESWPRP
PARAMETER: shrunken log2 fold change
MEAS_VALUE: 1.02

SEQUENCE_RECORD: RRIRTRPPRLPRPRPRPMNNPRP
PARAMETER: shrunken log2 fold change
MEAS_VALUE: -0.582

SEQUENCE_RECORD: RRIRKRPPRLPRPRPRPIKMPRP
PARAMETER: shrunken log2 fold change
MEAS_VALUE: 0.0326

// field: shrunken log2 fold change; key: RRIRIRPPRLPRPRPRPDEVPRP ; value = -0.0316

// field: shrunken log2 fold change; key: RRIRSRPPRLPRPRPRPYFMPRP ; value = -0.848

// field: shrunken log2 fold change; key: RRIRWRPPRLPRPRPRPEVNPRP ; value = 0.321
